Recorded half-life at 1 μM by entry
EXPERIMENT_NOTES: Half-life determination in human liver microsomes
Type: in vitro ADME
RECORDED_CONDITIONS: human, 1 μM, NADPH, Rep 6, read-out: Half-life, t½, Rep 6
State the answer as a number, implicitly in min.

Sample records with half-life at 1 μM:
MOLECULE	half-life at 1 μM, min
[2H]C(C)(C)Nc1cc(-c2c[nH]c(C(=O)N[C@H](CO)c3cccc(Cl)c3)c2)c(Cl)cn1	60.8
CC(C)Nc1cc(-c2c[nH]c(C(=O)N[C@H](CO)c3cccc(Cl)c3)c2)c(Cl)cn1 [Ulixertinib, reference compound]	48.1
[2H]C([2H])([2H])C(Nc1cc(-c2c[nH]c(C(=O)N[C@H](CO)c3cccc(Cl)c3)c2)c(Cl)cn1)C([2H])([2H])[2H]	44.9

Req: What half-life at 1 μM value was documented for this molecule, [2H]C([2H])([2H])C([2H])(Nc1cc(-c2c[nH]c(C(=O)N[C@H](CO)c3cccc(Cl)c3)c2)c(Cl)cn1)C([2H])([2H])[2H] ?
Resp: 62
